cytotoxicity at 10 µM values for the compounds below.
assay: Toxicity liver stage against HepG2, at 10uM; type: cell-based; set-up: test concentration 10 uM, cell line HepG2-A16-CD81EGFP; settings: human, HepG2-A16-CD81EGFP cells; read-out: INHIBITION
Numbers only; they are read as %.

Fill in the blank: the reported cytotoxicity at 10 µM of CN1CCCC1c1cncc(C(=O)NCCN2CCCCC2)n1 (stereo not given) is ____. 0.388

Same for `O=C(NCc1nncn1C1CC1)Nc1ccc(OC2CCC2)c(F)c1` -3.2

Same for `CC1(C)CN(C(=O)c2cc(F)cc3[nH]cnc23)CCS1` -7.36

Same for `O=C(CCCc1nnc(-c2ccccc2)o1)N1CCN(C2CC2)CC1` -12

Same for `Cc1ccc(CN2CCc3ncc(CNC(=O)C4CCC4)n3CC2)o1` 8.71

Same for COCCn1nc(C(=O)N2CCN(C)CC2C)ccc1=O (stereo not given) -0.451

Same for `CCN1CCN(C(=O)c2ccc(Cn3ccccc3=O)o2)CC1` -9.39

Same for `CCN1CCN(CCNc2nc3ccc(C)cc3c(=O)n2C)CC1` 10.7
